test description: Oral bioavailability in rat at 1 mg/kg, iv after 4 hrs
Format: ADME, organism-based
test conditions: in vivo
Reported bioavailability values for a set of compounds
measurement kind: bioavailability (%)

>  <compound>
CC(C)(O)C(=O)NC1CC2(CCCCC2)Oc2nc(-c3ccccc3Cl)c(-c3ccc(Cl)cc3)cc21 (single isomer, unassigned; enantiomer 1)

>  <measurement kind>
bioavailability

>  <value measured>
6

$$$$
>  <compound>
C[C@@H](O)C(=O)NC1CC(C)(C)Oc2nc(-c3ccc(Cl)cc3Cl)c(-c3ccc(Cl)cc3)cc21 (single isomer, unassigned)

>  <measurement kind>
bioavailability

>  <value measured>
100

$$$$
>  <compound>
CN1c2nc(-c3ccc(Cl)cc3Cl)c(-c3ccc(Cl)cc3)cc2C(C(=O)NCO)CC1(C)C (single isomer, unassigned; enantiomer 1)

>  <measurement kind>
bioavailability

>  <value measured>
25

$$$$
>  <compound>
CC1(C)CC(NC(=O)CCO)c2cc(-c3ccc(Cl)cc3)c(-c3ccc(Cl)cc3Cl)nc2O1 (single isomer, unassigned; enantiomer 1)

>  <measurement kind>
bioavailability

>  <value measured>
85

$$$$
>  <compound>
O=C(CO)NC1CC2(CCCCC2)Oc2nc(-c3ccccc3Cl)c(-c3ccc(Cl)cc3)cc21 (racemic)

>  <measurement kind>
bioavailability

>  <value measured>
13

$$$$

---

test description: Drug level in rat brain at 1 mg/kg, iv after 4 hrs
Type: ADME, organism-based
Design: dose 1 mg/kg, route intravenous
test conditions: read-out: Drug uptake
measurement kind: concentration at 4 h (nM)

>  <molecule>
O=C(CO)NC1CC2(CCCCC2)Oc2nc(-c3ccccc3Cl)c(-c3ccc(Cl)cc3)cc21 (racemic)

>  <measurement kind>
concentration at 4 h

>  <value measured>
27

$$$$
>  <molecule>
CN1c2nc(-c3ccc(Cl)cc3Cl)c(-c3ccc(Cl)cc3)cc2C(C(=O)NCO)CC1(C)C (single isomer, unassigned; enantiomer 1)

>  <measurement kind>
concentration at 4 h

>  <value measured>
76

$$$$
>  <molecule>
CC(C)(O)C(=O)NC1CC2(CCCCC2)Oc2nc(-c3ccccc3Cl)c(-c3ccc(Cl)cc3)cc21 (single isomer, unassigned; enantiomer 1)

>  <measurement kind>
concentration at 4 h

>  <value measured>
116

$$$$
>  <molecule>
C[C@@H](O)C(=O)NC1CC(C)(C)Oc2nc(-c3ccc(Cl)cc3Cl)c(-c3ccc(Cl)cc3)cc21 (single isomer, unassigned)

>  <measurement kind>
concentration at 4 h

>  <value measured>
122

$$$$

---

Test system: Rattus norvegicus
test description: Toxicity in diet-induced obese rat assessed as suppression in food intake at 3 mg/kg, po after 18 hrs
Assay type: organism-based
Set-up: dose 3 mg/kg, route oral
test conditions: in vivo
Activity: recorded values
measurement kind: Activity (%)

>  <compound>
CC1(C)CC(NC(=O)CCO)c2cc(-c3ccc(Cl)cc3)c(-c3ccc(Cl)cc3Cl)nc2O1 (single isomer, unassigned; enantiomer 1)

>  <target>
Rattus norvegicus

>  <measurement kind>
Activity

>  <units text>
%

>  <value measured>
48

$$$$
>  <compound>
CN1c2nc(-c3ccc(Cl)cc3Cl)c(-c3ccc(Cl)cc3)cc2C(C(=O)NCO)CC1(C)C (single isomer, unassigned; enantiomer 1)

>  <target>
Rattus norvegicus

>  <measurement kind>
Activity

>  <units text>
%

>  <value measured>
55

$$$$
>  <compound>
C[C@H](NC(=O)C(C)(C)Oc1ccc(C(F)(F)F)cn1)[C@@H](Cc1ccc(Cl)cc1)c1cccc(C#N)c1

>  <target>
Rattus norvegicus

>  <measurement kind>
Activity

>  <units text>
%

>  <value measured>
49

$$$$
>  <compound>
CC(C)(O)C(=O)NC1CC2(CCCCC2)Oc2nc(-c3ccccc3Cl)c(-c3ccc(Cl)cc3)cc21 (single isomer, unassigned; enantiomer 1)

>  <target>
Rattus norvegicus

>  <measurement kind>
Activity

>  <units text>
%

>  <value measured>
28

$$$$

---

Parameter: Kp at 4 h. Scope: all listed entries.
test description: Ratio of drug level in brain to plasma in rat at 1 mg/kg, iv after 4 hrs
Assay type: ADME, organism-based
Design: dose 1 mg/kg, route intravenous
test conditions: brain and plasma

>  <compound>
O=C(CO)NC1CC2(CCCCC2)Oc2nc(-c3ccccc3Cl)c(-c3ccc(Cl)cc3)cc21 (racemic)

>  <Kp at 4 h>
1.7

$$$$
>  <compound>
CN1c2nc(-c3ccc(Cl)cc3Cl)c(-c3ccc(Cl)cc3)cc2C(C(=O)NCO)CC1(C)C (single isomer, unassigned; enantiomer 1)

>  <Kp at 4 h>
0.88

$$$$
>  <compound>
C[C@@H](O)C(=O)NC1CC(C)(C)Oc2nc(-c3ccc(Cl)cc3Cl)c(-c3ccc(Cl)cc3)cc21 (single isomer, unassigned)

>  <Kp at 4 h>
0.38

$$$$
>  <compound>
CC(C)(O)C(=O)NC1CC2(CCCCC2)Oc2nc(-c3ccccc3Cl)c(-c3ccc(Cl)cc3)cc21 (single isomer, unassigned; enantiomer 1)

>  <Kp at 4 h>
3.5

$$$$

---

test description: Half life in rat at 1 mg/kg, iv after 4 hrs
Type: ADME, organism-based
Set-up: dose 1 mg/kg, route intravenous
test conditions: in vivo
Reported half-life values for a set of compounds
measurement kind: half-life (h)

>  <compound>
CC1(C)CC(NC(=O)CCO)c2cc(-c3ccc(Cl)cc3)c(-c3ccc(Cl)cc3Cl)nc2O1 (single isomer, unassigned; enantiomer 1)

>  <value measured>
13

$$$$
>  <compound>
CC(C)(O)C(=O)NC1CC2(CCCCC2)Oc2nc(-c3ccccc3Cl)c(-c3ccc(Cl)cc3)cc21 (single isomer, unassigned; enantiomer 1)

>  <value measured>
1.9

$$$$
>  <compound>
CN1c2nc(-c3ccc(Cl)cc3Cl)c(-c3ccc(Cl)cc3)cc2C(C(=O)NCO)CC1(C)C (single isomer, unassigned; enantiomer 1)

>  <value measured>
4.2

$$$$
>  <compound>
C[C@@H](O)C(=O)NC1CC(C)(C)Oc2nc(-c3ccc(Cl)cc3Cl)c(-c3ccc(Cl)cc3)cc21 (single isomer, unassigned)

>  <value measured>
7.9

$$$$
>  <compound>
O=C(CO)NC1CC2(CCCCC2)Oc2nc(-c3ccccc3Cl)c(-c3ccc(Cl)cc3)cc21 (racemic)

>  <value measured>
0.8

$$$$

---

test description: Clearance in rat plasma at 1 mg/kg, iv after 4 hrs
Format: ADME, organism-based
Set-up: dose 1 mg/kg, route intravenous
measurement kind: clearance (mL/min/kg)

>  <compound>
CC(C)(O)C(=O)NC1CC2(CCCCC2)Oc2nc(-c3ccccc3Cl)c(-c3ccc(Cl)cc3)cc21 (single isomer, unassigned; enantiomer 1)

>  <measurement kind>
clearance

>  <value measured>
62

$$$$
>  <compound>
O=C(CO)NC1CC2(CCCCC2)Oc2nc(-c3ccccc3Cl)c(-c3ccc(Cl)cc3)cc21 (racemic)

>  <measurement kind>
clearance

>  <value measured>
34

$$$$
>  <compound>
C[C@@H](O)C(=O)NC1CC(C)(C)Oc2nc(-c3ccc(Cl)cc3Cl)c(-c3ccc(Cl)cc3)cc21 (single isomer, unassigned)

>  <measurement kind>
clearance

>  <value measured>
4

$$$$
>  <compound>
CC1(C)CC(NC(=O)CCO)c2cc(-c3ccc(Cl)cc3)c(-c3ccc(Cl)cc3Cl)nc2O1 (single isomer, unassigned; enantiomer 1)

>  <measurement kind>
clearance

>  <value measured>
3

$$$$
>  <compound>
CN1c2nc(-c3ccc(Cl)cc3Cl)c(-c3ccc(Cl)cc3)cc2C(C(=O)NCO)CC1(C)C (single isomer, unassigned; enantiomer 1)

>  <measurement kind>
clearance

>  <value measured>
12

$$$$

---

target: Cannabinoid receptor 1 (Homo sapiens, UniProt P21554)
Sequence (P21554 whole entry): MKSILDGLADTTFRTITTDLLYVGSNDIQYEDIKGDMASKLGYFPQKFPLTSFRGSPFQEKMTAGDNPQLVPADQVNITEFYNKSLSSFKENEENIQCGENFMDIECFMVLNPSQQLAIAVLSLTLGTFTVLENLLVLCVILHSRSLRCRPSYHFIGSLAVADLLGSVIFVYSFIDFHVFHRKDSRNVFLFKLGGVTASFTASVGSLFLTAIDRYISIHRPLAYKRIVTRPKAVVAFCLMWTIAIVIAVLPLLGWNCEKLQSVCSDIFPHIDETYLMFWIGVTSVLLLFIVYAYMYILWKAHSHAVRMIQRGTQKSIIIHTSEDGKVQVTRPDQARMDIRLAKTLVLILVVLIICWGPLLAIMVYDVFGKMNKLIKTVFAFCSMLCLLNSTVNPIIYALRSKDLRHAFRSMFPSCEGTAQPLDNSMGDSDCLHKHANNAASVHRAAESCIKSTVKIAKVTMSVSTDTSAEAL
pIC50: −log10 of the molar value.

>  <compound>
CC(=O)NC1CC2(CCCCC2)Oc2nc(-c3ccccc3Cl)c(-c3ccc(Cl)cc3)cc21 (racemic)

>  <target>
Cannabinoid receptor 1 (Homo sapiens, UniProt P21554)

>  <pIC50>
8.89

$$$$
>  <compound>
CC(C)(O)C(=O)NC1CC2(CCCCC2)Oc2nc(-c3ccccc3Cl)c(-c3ccc(Cl)cc3)cc21 (single isomer, unassigned; enantiomer 1)

>  <target>
Cannabinoid receptor 1 (Homo sapiens, UniProt P21554)

>  <pIC50>
9.15

$$$$
>  <compound>
C[C@@H](O)C(=O)NC1CC2(CCCCC2)Oc2nc(-c3ccccc3Cl)c(-c3ccc(Cl)cc3)cc21 (stereo in doubt; 12h)

>  <target>
Cannabinoid receptor 1 (Homo sapiens, UniProt P21554)

>  <pIC50>
8.70

$$$$
>  <compound>
CC1(C)CC(NC(=O)CO)c2cc(-c3ccc(Cl)cc3)c(-c3ccc(Cl)cc3Cl)nc2O1 (single isomer, unassigned; enantiomer 1)

>  <target>
Cannabinoid receptor 1 (Homo sapiens, UniProt P21554)

>  <pIC50>
8.77

$$$$
>  <compound>
CC1(C)CC(O)c2cc(-c3ccc(Cl)cc3)c(-c3ccc(Cl)cc3Cl)nc2O1 (racemic)

>  <target>
Cannabinoid receptor 1 (Homo sapiens, UniProt P21554)

>  <pIC50>
6.89

$$$$
>  <compound>
O=C1CC2(CCS(=O)(=O)CC2)Oc2nc(-c3ccccc3Cl)c(-c3ccc(Cl)cc3)cc21

>  <target>
Cannabinoid receptor 1 (Homo sapiens, UniProt P21554)

>  <pIC50>
7.82

$$$$
